tested on: MS2 coat protein; experiment: apparent KD of MS2 coat protein; designed switch direction (-1 OFF switch, 1 ON switch): 1; higher = weaker reporter binding; conditions: input ligand: microRNA oligo, concentration not stated
Kindly return Met if reported apparent KD of MS2 coat protein is no lower than 0.07 µM; return Not met if it is lower.

Say whether AGCUAUCGAAAACGAUAGCAAAAGCAUGUACAUGAGGAUCACCCAUGUCAUGUACAAGCUUUUUGCUCGUCUUAAAA [JL zipper 23] (Eterna round: R96, puzzle: Sensor for hsa-mir-208a) shows apparent KD of MS2 coat protein of 0.07 µM or more.
Not met

Reported apparent KD of MS2 coat protein reaches at least 0.07 µM for ACAUGAGGAUCACCCAUGUAUGCUCAGGAAACUGUGCAUCGUGAGGAUAUGGAUCCUAAUUGGAUCCAGAAGGCAUGUAUUAUU [Fiskers NG3ss - 27] (Eterna round: R96, puzzle: Same State NG 3) ?
Not met

Quick check, apparent KD of MS2 coat protein >= 0.07 µM? UGUUGUAUUACAGGAUAUCUAGUAUUUUUAUUCAGAGAAGGGUAUUCACAUGAGGAUCACCCAUGUAUAUACGAGGAAGUUGUG [JMF's solution 56] (Eterna round: R96, puzzle: Same State NG 1)
Not met

Please check the record GGUGCAAUAAACGCCUACAUGAGGAUCACCCAUGUAUGUAGGCAGGAUAUCGUUUGCAAAGCAAACGAGAAGGGCUAUAGUACC [Mat - Same State NG 3 - JL Mod - D44] (Eterna round: R96, puzzle: Same State NG 3) and state if its apparent KD of MS2 coat protein is at or above 0.07 µM.
Met

Is apparent KD of MS2 coat protein at least 0.07 µM? Consider ACGCAGCUAGGUGAGGAUAUCGGUGGUAAAACAUGAGGAUCACCCAUGUCCGAAGCUCGGACUUCCGAGAAGGCGCCCGGCUGCA [Velaberi] (Eterna round: R96, puzzle: Same State 2)
Met

Hello, I need to know if ACUUAGUACAAUUUAGAUCUACAUGAGGAUCACCCAUGUACUGAGGAUAUCAGCUCGAUUAGAGCUGAGAAGGCAGAAGUACUU [SSNG3/8-A2] (Eterna round: R96, puzzle: Same State NG 3) has measured apparent KD of MS2 coat protein not below 0.07 µM. Thanks!
Met

Is reported apparent KD of MS2 coat protein greater than or equal to 0.07 µM here: UCUGCAAGAACAGGAUAUGGGUUCAGAGCGGGAGUGCGCUUUGACACAUGAGGAUCACCCAUGUCCCAGAAGGGUUCAUGCGGC [Eseseste] (Eterna round: R96, puzzle: Same State NG 2)
Met

Would you say GCUCGAUGAGCUGUUUACAUGAGGAUCACCCAUGUAAAUGGGCAGGAUAUUUACGUGCUUUGUGUAGAGAAGGGCCCAUCGAGC [SameState NG3 #76] (Eterna round: R96, puzzle: Same State NG 3) shows apparent KD of MS2 coat protein at minimum 0.07 µM?
Met

Does apparent KD of MS2 coat protein meet or surpass 0.07 µM for ACAUGAGGAUCACCCAUGUCGGAUAAGGAAACGACCACGUGGGAGGAUAUUGUAACGCGUCUGUACGAGAAGGCCCAUUCCAGU [Eternabot solution 42] (Eterna round: R96, puzzle: Same State NG 3) ?
Not met
